Values from ChEMBL document CHEMBL3351355

target: 5-hydroxytryptamine receptor 1A (Homo sapiens) (UniProt P08908)
Sequence (P08908 whole entry): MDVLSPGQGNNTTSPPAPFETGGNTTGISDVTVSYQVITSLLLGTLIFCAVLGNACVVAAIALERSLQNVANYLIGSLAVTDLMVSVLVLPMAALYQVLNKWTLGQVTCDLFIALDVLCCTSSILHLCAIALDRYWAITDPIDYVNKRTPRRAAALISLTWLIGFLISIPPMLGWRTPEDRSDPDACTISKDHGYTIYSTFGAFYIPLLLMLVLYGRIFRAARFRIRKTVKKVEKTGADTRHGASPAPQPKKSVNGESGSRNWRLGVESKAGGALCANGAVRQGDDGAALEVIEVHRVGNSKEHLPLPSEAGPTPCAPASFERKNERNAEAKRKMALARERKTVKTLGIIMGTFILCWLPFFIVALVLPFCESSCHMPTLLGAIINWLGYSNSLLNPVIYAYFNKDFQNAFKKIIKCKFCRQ
assay-details: Agonist activity at human recombinant 5-HT1A receptor expressed in HeLa cells after 30 mins by [35S]GTPgammaS binding assay relative to control
Format: functional, cell-based
Each record here notes measured Emax.
measurement-type: Emax (%)

>  <molecule>
COc1ccccc1N1CCN(CC2COC3(CCCCC3)O2)CC1 (stereo not drawn)

>  <number>
48

$$$$
>  <molecule>
COc1ccccc1N1CCN(CC2COC3(CCSCC3)O2)CC1 (stereo not drawn)

>  <number>
36

$$$$
>  <molecule>
COc1ccccc1N1CCN(CC2COC3(CCN(S(=O)(=O)c4ccc(C)cc4)CC3)O2)CC1 (stereo not drawn)

>  <number>
28

$$$$
>  <molecule>
COc1ccccc1N1CCN(CC2COC3(CC[S+]([O-])CC3)O2)CC1 (stereo not drawn)

>  <number>
139

$$$$
>  <molecule>
COc1ccccc1N1CCN(CC2COC3(CCN(c4ccccc4)CC3)O2)CC1 (stereo not drawn)

>  <number>
42

$$$$
>  <molecule>
COc1ccccc1N1CCN(CC2COC3(CCN(C(=O)C4CCCCC4)CC3)O2)CC1 (stereo not drawn)

>  <number>
33

$$$$
>  <molecule>
COc1ccccc1N1CCN(CC2COC3(CCN(C(=O)Nc4ccccc4)CC3)O2)CC1 (stereo not drawn)

>  <number>
28

$$$$
>  <molecule>
COc1ccccc1N1CCN(CC2COC3(CCN(C(=O)c4ccco4)CC3)O2)CC1 (stereo not drawn)

>  <number>
33

$$$$
>  <molecule>
COc1ccccc1N1CCN(CC2COC3(CCN(Cc4ccccc4)CC3)O2)CC1 (stereo not drawn)

>  <number>
45

$$$$
>  <molecule>
CCCCNC(=O)N1CCC2(CC1)OCC(CN1CCN(c3ccccc3OC)CC1)O2 (stereo not drawn)

>  <number>
30

$$$$
>  <molecule>
COc1ccccc1N1CCN(CC2COC3(CCOCC3)O2)CC1 (stereo not drawn)

>  <number>
31

$$$$
>  <molecule>
COc1ccccc1N1CCN(CC2COC3(CCN(c4ccccn4)CC3)O2)CC1 (stereo not drawn)

>  <number>
41

$$$$
>  <molecule>
COc1ccccc1N1CCN(CC2COC3(CCN(S(=O)(=O)c4ccc([N+](=O)[O-])cc4)CC3)O2)CC1 (stereo not drawn)

>  <number>
37

$$$$
